Below: a set of entries, each annotated with reported EC50 hGLP-1R (cAMP).
target: human GLP-1 receptor (human, UniProt P43220 24-463); assay: cell-based or functional assay
Report the value in nM with no unit label.

| binder | EC50 hGLP-1R (cAMP) [nM] |
| --- | --- |
| HXQGTFTSDLSKQKESRRAQDFIEWLKAGGPSSGAPPPS (dSer at 2; K(γE-x53) at 14; C-terminal NH2) [SEQ ID NO: 4] | 0.005 |

Next:
GET /value?item= HXQGTFTSDLSKQKDSRRAQDFIEWLKRGGPSSGAPPPS (dSer at 2; K(γE-x53) at 14; C-terminal NH2) [SEQ ID NO: 125] &field=EC50 hGLP-1R (cAMP) returns 0.0314
